System: HepG2
assay_overview: Cytotoxicity against human HepG2 cells harboring AhR assessed as reduction in cell viability at 0.1 to 10 uM measured for 24 to 72 hrs by MTT assay
Format: cell-based
protocol_conditions: hepg2, 10 µM, dose lower 0.1 µM, time lower 24 hrs, dose upper 10 µM, time upper 72 hrs
measured_attribute: Activity

Below: 7 molecules and their reported Activity.
INSERT INTO results (molecule, recorded_result) VALUES
  ('COc1ccc(C(c2ccccn2)c2c(O)ccc3ccccc23)cc1 (stereo not drawn)', 'Non-Toxic'),
  ('COc1ccc(C(c2ccccn2)c2c[nH]c3ccccc23)cc1 (stereo not drawn)', 'Non-Toxic'),
  ('CC(=O)Oc1ccc(C(c2ccccn2)c2c[nH]c3ccccc23)cc1 (stereo not drawn)', 'Non-Toxic'),
  ('COc1ccc(C(O)(c2ccc(C(F)(F)F)cc2)c2ccccn2)cc1 (stereo not drawn)', 'Non-Toxic'),
  ('Oc1ccc(C(c2ccccn2)c2cccs2)cc1 (stereo not drawn)', 'Non-Toxic'),
  ('Oc1ccc(C(c2ccccn2)c2c(O)ccc3ccccc23)cc1 (stereo not drawn)', 'Non-Toxic'),
  ('COc1ccc(C(c2ccccn2)c2cccs2)cc1 (stereo not drawn)', 'Non-Toxic');

Now examine the next entry.
Ask: Given the molecule COc1ccc(C(O)(c2ccccn2)c2ccc3ccccc3n2)cc1 (stereo not drawn) , write its reported Activity.
Reply: Non-Toxic

The reported measurements were obtained from ChEMBL document CHEMBL4706594.
